Below, each of the molecules is paired with its reported half-life at 25 μM value.
# Test: Reactivity Profiling with Glutathione (GSH), HPLC
# Format: in vitro ADME
# Experimental context: 5 mM glutathione (GSH) in cell culture medium, 25 μM inhibitor, IMDM 10% FBS, 0.5% DMSO, 25° C., read-out: T1/2-GSH

Below, 6 molecules whose answers are already recorded.
Smiles: CN(C)c1c(N(C)CCN(Cc2cc(C3CC3)cc(C(C)(C)C)c2)C(=O)CN(Cc2ccccc2F)S(=O)(=O)c2c(F)c(F)c(F)c(F)c2F)c(=O)c1=O
half-life at 25 μM: 554 to 100000 min
//
Smiles: CN(C)c1c(NCCN(Cc2cc(C3CC3)cc(C(C)(C)C)c2)C(=O)CN(Cc2cnccc2C(F)(F)F)S(=O)(=O)c2c(F)c(F)c(F)c(F)c2F)c(=O)c1=O
half-life at 25 μM: 247 to 554 min
//
Smiles: CN(C)c1c(NCCN(Cc2cc(C3CC3)cc(C(C)(C)C)c2)C(=O)CN(Cc2ccccc2F)S(=O)(=O)c2c(F)c(F)c(F)c(F)c2F)c(=O)c1=O
half-life at 25 μM: 554 to 100000 min
//
Smiles: CNc1c(NCCN(Cc2cc(C3CC3)cc(C(C)(C)C)c2)C(=O)CN(Cc2ccccc2F)S(=O)(=O)c2c(F)c(F)c(F)c(F)c2F)c(=O)c1=O
half-life at 25 μM: 554 to 100000 min
//
Smiles: CC(C)(C)c1cc(CN(C(=O)CN(Cc2ccc(Cl)cc2)S(=O)(=O)c2c(F)c(F)c(F)c(F)c2F)c2ccc(O)nc2)cc(C2CC2)c1
half-life at 25 μM: 554 to 100000 min
//
Smiles: CC(C)(C)c1cc(CN(C(=O)CN(Cc2ccccc2F)S(=O)(=O)c2c(F)c(F)c(F)c(F)c2F)c2cnc(N)nc2)cc(C2CC2)c1
half-life at 25 μM: 247 to 554 min

Now, please, on to the next molecule.
Query :: Which value of half-life at 25 μM has been reported for CC(C)(C)c1cc(CN(C(=O)CN(Cc2ccc(Cl)cc2)S(=O)(=O)c2c(F)c(F)c(F)c(F)c2F)c2cnc(N)nc2)cc(C2CC2)c1 in the records?
Result :: 554 to 100000 min
